- System: MEL-28
- protocol_details: In vitro cytotoxic activity, SRB assay
- Assay type: cell-based, human
- experimental_conditions: MEL-28, 48 hours exposure
Measured LC50, listed per entry.

Please review the entries below; each comes with its answer.
| compound | LC50 |
| --- | --- |
| C/C=C1\NC(=O)[C@H](Cc2ccccc2)NC(=O)[C@@H](C(C)C)NC(=O)[C@@H]([C@@H](C)CC)NC(=O)[C@H](NC(=O)[C@H](NC(=O)[C@H](CCCN)NC(=O)[C@H]2CCCN2C(=O)[C@H](NC(=O)[C@@H](NC(=O)[C@@H](NC(=O)[C@H](NC(=O)CCCC(C)C)C(C)C)[C@@H](C)O)C(C)C)C(C)C)[C@@H](C)CC)[C@@H](C)OC(=O)[C@H](C(C)C)NC1=O [5-methylhexanoic KF, reference compound] | 3.55 µM |
| C/C=C1\NC(=O)[C@H](Cc2ccccc2)NC(=O)[C@@H](C(C)C)NC(=O)[C@@H]([C@@H](C)CC)NC(=O)[C@H](NC(=O)[C@H](NC(=O)[C@H](CCCN)NC(=O)[C@H]2CCCN2C(=O)[C@H](NC(=O)[C@@H](NC(=O)[C@@H](NC(=O)[C@H](NC(=O)CC[C@H](C)CC)C(C)C)[C@@H](C)O)C(C)C)C(C)C)[C@@H](C)CC)[C@@H](C)OC(=O)[C@H](C(C)C)NC1=O | 3.8 µM |

Please examine the following record next.
Exercise: Request the reported LC50 associated with `C/C=C1\NC(=O)[C@H](Cc2ccccc2)NC(=O)[C@@H](C(C)C)NC(=O)[C@@H]([C@@H](C)CC)NC(=O)[C@H](NC(=O)[C@H](NC(=O)[C@H](CCCN)NC(=O)[C@H]2CCCN2C(=O)[C@H](NC(=O)[C@@H](NC(=O)[C@@H](NC(=O)[C@H](NC(=O)CC[C@@H](C)CC)C(C)C)[C@@H](C)O)C(C)C)C(C)C)[C@@H](C)CC)[C@@H](C)OC(=O)[C@H](C(C)C)NC1=O`
Solution: 4.72 µM
